Source: patent US20210155689A1

Below is a list of entries, each paired with its recorded Mean fluorescence intensity value.
Assay target: T1, human LAG-3 on cells (HEK293-hLAG-3 stable cell line) (human, UniProt P18627 23-525)
T1 sequence: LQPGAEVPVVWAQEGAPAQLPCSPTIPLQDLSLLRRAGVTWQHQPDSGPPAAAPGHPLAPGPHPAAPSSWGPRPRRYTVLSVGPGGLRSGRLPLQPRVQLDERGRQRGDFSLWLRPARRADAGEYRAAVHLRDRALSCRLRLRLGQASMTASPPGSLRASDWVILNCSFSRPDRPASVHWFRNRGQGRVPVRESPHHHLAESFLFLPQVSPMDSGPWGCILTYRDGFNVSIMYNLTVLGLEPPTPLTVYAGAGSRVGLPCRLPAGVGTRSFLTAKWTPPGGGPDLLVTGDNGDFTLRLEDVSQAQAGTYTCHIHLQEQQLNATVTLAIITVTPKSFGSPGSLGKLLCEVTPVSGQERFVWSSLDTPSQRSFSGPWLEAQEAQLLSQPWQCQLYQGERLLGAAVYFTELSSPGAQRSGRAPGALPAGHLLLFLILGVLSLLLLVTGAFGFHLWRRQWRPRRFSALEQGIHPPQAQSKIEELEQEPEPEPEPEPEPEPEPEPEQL
Assay remarks: FACS, HEK293-hLAG-3, antibody 0.064 nM
Lab note: jot the number down without any unit.

409B11E12 mouse-human chimeric antibody (antibody, V domains shown, also called mAb104-409B11E12) VH: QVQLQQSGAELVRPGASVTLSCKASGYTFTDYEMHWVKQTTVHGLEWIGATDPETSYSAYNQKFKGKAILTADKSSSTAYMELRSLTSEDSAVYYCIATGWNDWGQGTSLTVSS VL: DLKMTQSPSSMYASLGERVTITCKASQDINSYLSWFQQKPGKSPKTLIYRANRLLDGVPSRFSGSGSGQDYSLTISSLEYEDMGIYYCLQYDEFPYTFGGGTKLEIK	6.3
405B8H3 mouse-human chimeric antibody (antibody, V domains shown, also called mAb103-405B8H3) VH: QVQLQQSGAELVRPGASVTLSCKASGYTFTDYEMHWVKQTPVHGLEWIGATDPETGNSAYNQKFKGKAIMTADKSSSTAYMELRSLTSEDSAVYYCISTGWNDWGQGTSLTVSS VL: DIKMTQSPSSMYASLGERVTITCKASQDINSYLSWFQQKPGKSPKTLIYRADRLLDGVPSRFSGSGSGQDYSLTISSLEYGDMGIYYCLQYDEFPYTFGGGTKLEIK	6.3

// moving on: another record for Mean fluorescence intensity
For the binder shown here, 105F1E10 mouse-human chimeric antibody (antibody, V domains shown, also called mAb009-105F1E10) VH: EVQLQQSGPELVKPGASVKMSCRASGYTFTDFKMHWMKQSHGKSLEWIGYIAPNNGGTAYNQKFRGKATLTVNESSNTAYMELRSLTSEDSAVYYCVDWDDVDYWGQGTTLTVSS VL: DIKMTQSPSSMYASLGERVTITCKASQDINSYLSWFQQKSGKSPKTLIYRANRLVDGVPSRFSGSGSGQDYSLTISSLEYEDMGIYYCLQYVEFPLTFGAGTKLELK , give the reported Mean fluorescence intensity.
5.1
